Experimental System: melanocortin 1 receptor (MC1R) (UniProt Q01726)
Sequence (Q01726 whole entry): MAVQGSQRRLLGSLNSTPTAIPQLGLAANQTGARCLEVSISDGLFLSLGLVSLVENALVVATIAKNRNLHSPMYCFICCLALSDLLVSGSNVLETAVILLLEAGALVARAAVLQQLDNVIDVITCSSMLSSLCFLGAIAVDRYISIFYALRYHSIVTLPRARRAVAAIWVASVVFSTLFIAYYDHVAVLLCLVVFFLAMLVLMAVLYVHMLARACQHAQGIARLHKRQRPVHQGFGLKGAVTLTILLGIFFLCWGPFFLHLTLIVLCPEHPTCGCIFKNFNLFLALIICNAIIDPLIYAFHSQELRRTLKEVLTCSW
Assay Protocol: 125I-NDP-MSH competition, HEK293 membranes
pKi: −log10 of the molar value. [ ]: non-standard residue; d: D form.
# reported pKi; entries follow
Observed Property: pKi

{"Binder": "VPKGWRFWEMSYS (N-terminal acetyl (Ac); C-terminal amide; D-isomers at all residues except Gly 4) [peptide 873]", "Value Reported": 5.72}
{"Binder": "VPKGWRFHEXSYS (N-terminal acetyl (Ac); C-terminal amide; α-methyl-D-Met at 10; D-isomers at all residues except Gly 4) [peptide 877]", "Value Reported": 6.55}
{"Binder": "VPKGWRXHEMSYS (N-terminal acetyl (Ac); C-terminal amide; 2-thienyl-D-Alanine at 7; D-isomers at all residues except Gly 4) [peptide 868]", "Value Reported": 8.27}
{"Binder": "VPKGWRXHEMSYS (N-terminal acetyl (Ac); C-terminal amide; D-cyclohexylalanine (D-Cha) at 7; D-isomers at all residues except Gly 4) [peptide 869]", "Value Reported": 8.66}
{"Binder": "VPXGWRFHEMSYS (N-terminal acetyl (Ac); C-terminal amide; D-Ornithine at 3; D-isomers at all residues except Gly 4) [peptide 857]", "Value Reported": 8.52}
{"Binder": "VPKGARFHEMSYS (N-terminal acetyl (Ac); C-terminal amide; D-isomers at all residues except Gly 4) [peptide 812]", "Value Reported": 5.52}
{"Binder": "VPKGFRFHEMSYS (N-terminal acetyl (Ac); C-terminal amide; D-isomers at all residues except Gly 4) [peptide 862-b]", "Value Reported": 6.89}
{"Binder": "H-[dV][dP][dK]G[dW][dR][dF][dH]-OH (SMILES CC(C)[C@@H](N)C(=O)N1CCC[C@@H]1C(=O)N[C@H](CCCCN)C(=O)NCC(=O)N[C@H](Cc1c[nH]c2ccccc12)C(=O)N[C@H](CCCNC(=N)N)C(=O)N[C@H](Cc1ccccc1)C(=O)N[C@H](Cc1c[nH]cn1)C(=O)O) [peptide 847int]", "Value Reported": 6.82}
{"Binder": "VPKGWRFHEASYS (N-terminal acetyl (Ac); C-terminal amide; D-isomers at all residues except Gly 4) [peptide 807]", "Value Reported": 5.85}
